These data points were gathered from BindingDB's records for doi:10.1021/cb9002865.

Target: Receptor protein serine/threonine kinase (Danio rerio, UniProt B3DJG0)
Sequence (B3DJG0 whole entry): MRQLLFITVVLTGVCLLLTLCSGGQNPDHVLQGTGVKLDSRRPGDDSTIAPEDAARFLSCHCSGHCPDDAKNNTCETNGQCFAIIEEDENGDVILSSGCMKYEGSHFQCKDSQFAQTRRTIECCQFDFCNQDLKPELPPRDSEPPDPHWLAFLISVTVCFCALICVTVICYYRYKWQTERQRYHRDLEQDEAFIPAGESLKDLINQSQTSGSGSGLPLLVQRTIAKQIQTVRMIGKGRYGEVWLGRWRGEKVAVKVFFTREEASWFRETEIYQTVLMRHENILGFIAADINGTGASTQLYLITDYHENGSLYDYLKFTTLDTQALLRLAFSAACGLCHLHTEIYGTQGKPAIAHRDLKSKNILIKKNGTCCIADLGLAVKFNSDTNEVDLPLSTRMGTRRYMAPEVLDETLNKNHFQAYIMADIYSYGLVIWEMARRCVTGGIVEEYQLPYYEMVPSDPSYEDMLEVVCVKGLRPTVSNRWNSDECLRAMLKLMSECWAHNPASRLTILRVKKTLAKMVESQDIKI
Experiment: Kinase assay Dorsalization
Property Measured: EC100 (nM)

The examples below pair each entry with its known result.
| Cpd Smiles | EC100 / nM |
| --- | --- |
| c1ccc2c(-c3cnn4cc(-c5ccc(N6CCNCC6)cc5)cnc34)ccnc2c1 | 3000 |
| CN(C)CCCOc1ccc(-c2cnc3c(-c4ccnc5ccccc45)cnn3c2)cc1 | 1000 |

[P] c1cc(-c2cnn3cc(-c4ccc(OCCN5CCOCC5)cc4)cnc23)ccn1
[Q] c1ccc2c(-c3cnn4cc(-c5ccc(OCCN6CCOCC6)cc5)cnc34)ccnc2c1
[R] CC(C)Oc1ccc(-c2cnc3c(-c4ccnc5ccccc45)cnn3c2)cc1
Arrange the 3 compounds by rising EC100, starting with the smallest. # list labels per requested ordering
Q, R, P
